These entries and their values trace back to patent US11524955B2.

- Tested on: IL-23, THP1 cells
- TEST_PROTOCOL: IL-23 assay, THP1 cells primed with IFNg, LPS stimulated, ELISA
- Type: cell-based
- CONDITION_SUMMARY: Homo sapiens, THP-1; THP cells, LPS; read-out: IL23 (THP, LPS) IC50
QUANTITY_KIND: IC50 (µM)
One number for each entry, in µM.

NC(=O)[C@@H]1[C@H](Nc2nc(Nc3cccc(C(=O)N4CCCC4)c3)ncc2-c2cccc(F)c2)[C@H]2C=C[C@@H]1C2 :: 0.13

Note: attention shifts to another entry.
Exercise: What value of IC50 on IL-23, THP1 cells does NC(=O)[C@@H]1[C@H](Nc2nc(Nc3cccc(C(=O)N4CCCC4)c3)ncc2-c2ccnc(F)c2)[C@H]2C=C[C@@H]1C2 have?
Solution: 0.1
